Overview of reported association constant Ka across a group of compounds:
Assay: 1H NMR titration of guests into the ^2,6AnBox^4+ cavity (binding constant)
Settings: 1H NMR titration in CD3CN, without salt
reported_metric: association constant Ka (M⁻¹)

* c1ccc2cc3ccccc3cc2c1 [anthracene, reference compound] | 125
* c1ccc(C[n+]2ccc(-c3ccc4cc5cc(-c6cc[n+](Cc7ccccc7)cc6)ccc5cc4c3)cc2)cc1 | 40
* BrCc1ccc(C[n+]2ccc(-c3ccc4cc5cc(-c6cc[n+](Cc7ccc(CBr)cc7)cc6)ccc5cc4c3)cc2)cc1 | 42
* c1ccc(C[n+]2ccc(-c3ccc4cc5cc(-c6ccncc6)ccc5cc4c3)cc2)cc1 | 102

----------
Assay: Absorption and photoluminescence spectroscopy in solution
Format: physicochemical
Details: MeCN, high dilution
reported_metric: absorption band (higher-energy band of the anthracene moiety) (nm)

- BrCc1ccc(C[n+]2ccc(-c3c4ccccc4c(-c4cc[n+](Cc5ccc(CBr)cc5)cc4)c4ccccc34)cc2)cc1 [^9,10AnDB^2+]: 330
- BrCc1ccc(C[n+]2ccc(-c3ccc4cc5cc(-c6cc[n+](Cc7ccc(CBr)cc7)cc6)ccc5cc4c3)cc2)cc1 [^2,6AnDB^2+]: 330
- c1ccc2c(-c3ccncc3)c3ccccc3c(-c3ccncc3)c2c1 [^9,10AnBPY, 9,10-bis(4-pyridyl)anthracene, reference compound]: 290
- c1cc(-c2ccc3cc4cc(-c5ccncc5)ccc4cc3c2)ccn1 [^2,6AnBPY, 2,6-bis(4-pyridyl)anthracene, reference compound]: 290
